targetDesc: Cannabinoid receptor 2 (Homo sapiens)
The label is 1 for Ki below 10 nM and -1 for Ki equal to or exceeding 10 nM.

Report whether reported Ki is lower than 10 nM (strictly) for `CCc1c(C(=O)NC23CC4CC(CC(C4)C2)C3)nc(C)n1-c1ccccc1`
1

Can you check `C[C@H](NS(C)(=O)=O)c1ccc(S(=O)(=O)c2ccc(Cl)cc2S(=O)(=O)c2ccccc2F)cc1` next?
1

Can you check `Cc1nc(C(=O)NC23CC4CC(CC(C4)C2)C3)c(Cl)n1-c1ccccc1` next?
-1

Can you check `CCc1nc(C(=O)NC23CC4CC(CC(C4)C2)C3)c(C)n1-c1ccccc1` next?
1

Can you check `Cc1nc(C(=O)NC23CC4CC(CC(C4)C2)C3)c(C)n1-c1ccccc1` next?
1

Can you check Cc1nc(C(=O)NC2C3CC4CC(C3)CC2C4)c(C)n1-c1ccccc1 (stereo unspecified) next?
-1

Can you check Cc1nc(C(=O)NC2C3CC4CC(C3)C2C4)c(C)n1-c1ccccc1 (stereo unspecified) next?
1

Can you check `Cc1c(C(=O)NC[C@H]2C[C@@H]3C[C@H](C2)C3(C)C)ncn1-c1ccccc1` next?
-1

Can you check `Cc1nc(C(=O)NC23CC4CC(CC(C4)C2)C3)c(Br)n1-c1ccccc1` next?
1

Can you check `CCc1nc(C(=O)NC23CC4CC(CC(C4)C2)C3)cn1-c1ccccc1` next?
-1

Can you check `O=C(NC12CC3CC(CC(C3)C1)C2)c1nc(Cl)n(-c2ccccc2)c1Cl` next?
-1

Can you check `Cc1nc(C(=O)NC[C@H]2C[C@@H]3C[C@H](C2)C3(C)C)c(C)n1-c1ccccc1` next?
-1

Can you check `Cc1nc(C(=O)NC23CC4CC(CC(C4)C2)C3)c(C)n1C1CCCCC1` next?
-1

Can you check `Cc1nc(C(=O)NCc2ccccc2C(F)(F)F)c(C)n1-c1ccccc1` next?
1

###

targetDesc: Cannabinoid receptor 2 (Homo sapiens, UniProt P34972)
Sequence (P34972 whole entry): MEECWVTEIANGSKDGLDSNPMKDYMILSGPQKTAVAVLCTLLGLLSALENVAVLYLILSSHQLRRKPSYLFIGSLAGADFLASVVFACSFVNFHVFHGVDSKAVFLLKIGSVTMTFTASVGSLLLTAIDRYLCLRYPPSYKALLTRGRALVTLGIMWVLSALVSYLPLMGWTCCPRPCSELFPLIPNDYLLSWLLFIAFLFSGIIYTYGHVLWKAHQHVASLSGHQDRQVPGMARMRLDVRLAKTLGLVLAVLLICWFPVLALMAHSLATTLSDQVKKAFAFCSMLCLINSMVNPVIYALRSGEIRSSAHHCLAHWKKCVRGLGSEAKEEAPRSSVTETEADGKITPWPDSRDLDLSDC
testMethodNotes: Inverse agonist activity at human CB2 receptor assessed as stimulation of cAMP accumulation after 20 mins
pEC50: −log10 of the molar value.
Lab note: anything with pEC50 at or over 8 counts as class 1; the rest go in class 0.

givenSmiles	assignedCategory
Cc1nc(C(=O)NCc2ccccc2C(F)(F)F)c(C)n1-c1ccccc1	class 1

Is it the case that `CCCCc1c(C(=O)NC23CC4CC(CC(C4)C2)C3)nc(C)n1-c1ccccc1` has pEC50 reaching or exceeding 8?
class 1

Can you check `Cc1nc(C(=O)NC[C@H]2C[C@@H]3C[C@H](C2)C3(C)C)c(C)n1-c1ccccc1` next?
class 0

###

targetDesc: Cannabinoid receptor 2 (Homo sapiens)
testMethodNotes: Inverse agonist activity at human CB2 receptor assessed as stimulation of cAMP accumulation after 20 mins
assayReadout: log10(EC50) (log10 of the value in nM)
Please keep in mind that the values are log10 of EC50 expressed in nM.

Some compounds with recorded log10(EC50):
givenSmiles	log10(EC50)
Cc1c(C(=O)NC[C@H]2C[C@@H]3C[C@H](C2)C3(C)C)ncn1-c1ccccc1	2.20
C[C@H](NS(C)(=O)=O)c1ccc(S(=O)(=O)c2ccc(Cl)cc2S(=O)(=O)c2ccccc2F)cc1	0.90
CCc1c(C(=O)NC23CC4CC(CC(C4)C2)C3)nc(C)n1-c1ccccc1	1.30
Cc1nc(C(=O)NC23CC4CC(CC(C4)C2)C3)c(C)n1C1CCCCC1	2.10

Quick one: log10(EC50) for `Cc1nc(C(=O)NC23CC4CC(CC(C4)C2)C3)c(Cl)n1-c1ccccc1` ?
1.80
